Target: Coagulation factor X (Homo sapiens)
Experiment: Inhibition of human factor 10a
Labelling: Ki reported below 3 nM becomes criterion met; at or above becomes criterion not met.

molecule=O=C(N[C@H]1COC[C@H]1NC(=O)c1ccc2c(Cl)c[nH]c2c1)c1ccc(-n2ccccc2=O)cc1 category_label="criterion met"
molecule=CCC(=O)N1C[C@H](NC(=O)c2ccc(-n3ccccc3=O)cc2)[C@H](NC(=O)c2ccc(Cl)s2)C1 category_label="criterion met"
molecule=O=C(N[C@@H]1Cc2ccccc2[C@@H]1NC(=O)c1ccc(Cl)s1)c1ccc(-n2ccccc2=O)cc1 category_label="criterion not met"
molecule=O=C(N[C@@H]1Cc2ccccc2[C@@H]1NC(=O)c1ccc2c(Cl)c[nH]c2c1)c1ccc(-n2ccccc2=O)cc1 category_label="criterion met"
molecule=O=C(N[C@@H]1c2ccccc2C[C@@H]1NC(=O)c1ccc(Cl)s1)c1ccc(-n2ccccc2=O)cc1 category_label="criterion not met"
molecule=CCOC(=O)N1C[C@H](NC(=O)c2ccc(-n3ccccc3=O)cc2)[C@H](NC(=O)c2ccc(Cl)s2)C1 category_label="criterion met"
molecule=O=C(N[C@H]1Cc2ccccc2[C@H]1NC(=O)c1ccc2c(Cl)c[nH]c2c1)c1ccc(-n2ccccc2=O)cc1 category_label="criterion met"
molecule=O=C(N[C@H]1CN(C(=O)C2CC2)C[C@H]1NC(=O)c1ccc(Cl)s1)c1ccc(-n2ccccc2=O)cc1 category_label="criterion met"
molecule=CC(C)(C)C(=O)N1C[C@H](NC(=O)c2ccc(-n3ccccc3=O)cc2)[C@H](NC(=O)c2ccc(Cl)s2)C1 category_label="criterion met"
molecule=O=C(N[C@H]1c2ccccc2C[C@H]1NC(=O)c1ccc(Cl)s1)c1ccc(-n2ccccc2=O)cc1 category_label="criterion met"
molecule=O=C(N[C@H]1CN(C(=O)OCC2c3ccccc3-c3ccccc32)C[C@H]1NC(=O)c1ccc(Cl)s1)c1ccc(-n2ccccc2=O)cc1 category_label="criterion not met"
molecule=O=C(N[C@@H]1Cc2ccccc2[C@@H]1NC(=O)c1ccc(-n2ccccc2=O)cc1)c1ccc2c(Cl)c[nH]c2c1 category_label="criterion met"
molecule=O=C(N[C@H]1C[C@H](C(=O)O)C[C@H]1NC(=O)c1ccc(Cl)s1)c1ccc(-n2ccccc2=O)cc1 category_label="criterion met"
molecule=CC(C)C(=O)N1C[C@H](NC(=O)c2ccc(-n3ccccc3=O)cc2)[C@H](NC(=O)c2ccc(Cl)s2)C1 category_label="criterion met"
molecule=O=C(N[C@H]1CNC[C@H]1NC(=O)c1ccc(Cl)s1)c1ccc(-n2ccccc2=O)cc1 category_label="criterion not met"
molecule=CNC(=O)N1C[C@H](NC(=O)c2ccc(-n3ccccc3=O)cc2)[C@H](NC(=O)c2ccc(Cl)s2)C1 category_label="criterion met"
molecule=CC(=O)N1C[C@H](NC(=O)c2ccc(-n3ccccc3=O)cc2)[C@H](NC(=O)c2ccc3c(Cl)c[nH]c3c2)C1 category_label="criterion not met"
molecule=CN(C)C(=O)N1C[C@H](NC(=O)c2ccc(-n3ccccc3=O)cc2)[C@H](NC(=O)c2ccc(Cl)s2)C1 category_label="criterion met"
molecule=O=C(N[C@H]1CNC[C@H]1NC(=O)c1ccc2c(Cl)c[nH]c2c1)c1ccc(-n2ccccc2=O)cc1 category_label="criterion not met"
molecule=COCCOC(=O)N1C[C@H](NC(=O)c2ccc(-n3ccccc3=O)cc2)[C@H](NC(=O)c2ccc(Cl)s2)C1 category_label="criterion met"
molecule=O=C(N[C@H]1C[C@H](CO)C[C@H]1NC(=O)c1ccc(Cl)s1)c1ccc(-n2ccccc2=O)cc1 category_label="criterion met"
molecule=O=C(N[C@H]1Cc2ccccc2[C@H]1NC(=O)c1ccc(Cl)s1)c1ccc(-n2ccccc2=O)cc1 category_label="criterion not met"
molecule=O=C(N[C@H]1COC[C@H]1NC(=O)c1ccc(Cl)s1)c1ccc(-n2ccccc2=O)cc1 category_label="criterion met"
molecule=CCOC(=O)N1C[C@H](NC(=O)c2ccc(-n3ccccc3=O)cc2)[C@H](NC(=O)c2ccc3c(Cl)c[nH]c3c2)C1 category_label="criterion met"
molecule=COCC(=O)N1C[C@H](NC(=O)c2ccc(-n3ccccc3=O)cc2)[C@H](NC(=O)c2ccc(Cl)s2)C1 category_label="criterion met"
molecule=O=C(N[C@H]1CN(C(=O)c2ccccc2)C[C@H]1NC(=O)c1ccc(Cl)s1)c1ccc(-n2ccccc2=O)cc1 category_label="criterion met"
molecule=O=C(N[C@H]1CN(C(=O)N2CCCC2)C[C@H]1NC(=O)c1ccc(Cl)s1)c1ccc(-n2ccccc2=O)cc1 category_label="criterion met"
molecule="COC(=O)C1C[C@H](NC(=O)c2ccc(-n3ccccc3=O)cc2)[C@H](NC(=O)c2ccc(Cl)s2)C1 (some centres not stated)" category_label="criterion met"
molecule=CCS(=O)(=O)N1C[C@H](NC(=O)c2ccc(-n3ccccc3=O)cc2)[C@H](NC(=O)c2ccc(Cl)s2)C1 category_label="criterion met"
molecule=COC(=O)[C@H]1C[C@H](NC(=O)c2ccc(-n3ccccc3=O)cc2)[C@H](NC(=O)c2ccc(Cl)s2)C1 category_label="criterion met"
molecule=O=C(N[C@H]1Cc2ccccc2[C@H]1NC(=O)c1ccc(-n2ccccc2=O)cc1)c1ccc2c(Cl)c[nH]c2c1 category_label="criterion not met"

----------
Target: Coagulation factor X (Homo sapiens, UniProt P00742)
Sequence (P00742 41-179 limits assumed): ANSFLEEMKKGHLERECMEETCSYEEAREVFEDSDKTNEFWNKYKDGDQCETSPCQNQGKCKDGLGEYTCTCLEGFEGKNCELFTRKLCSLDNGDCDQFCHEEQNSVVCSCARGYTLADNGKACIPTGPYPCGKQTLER
Sequence (P00742 235-488 limits assumed): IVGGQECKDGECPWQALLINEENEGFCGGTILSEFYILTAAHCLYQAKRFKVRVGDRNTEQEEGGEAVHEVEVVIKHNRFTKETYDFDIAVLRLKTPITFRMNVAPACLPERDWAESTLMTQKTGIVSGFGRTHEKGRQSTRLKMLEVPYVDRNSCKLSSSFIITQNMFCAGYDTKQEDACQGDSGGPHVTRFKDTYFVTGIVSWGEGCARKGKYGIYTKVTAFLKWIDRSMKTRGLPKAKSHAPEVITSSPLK
Experiment: Inhibition of human factor 10a
pKi: −log10 of the molar value.
RESULT TYPE: pKi

item_smiles=O=C(N[C@H]1C[C@H](C(=O)NC2CC2)C[C@H]1NC(=O)c1ccc(Cl)s1)c1ccc(-n2ccccc2=O)cc1 reported=8.80
item_smiles=O=C(N[C@H]1C[C@H](C(=O)N2CCOCC2)C[C@H]1NC(=O)c1ccc(Cl)s1)c1ccc(-n2ccccc2=O)cc1 reported=8.80
item_smiles=O=C(N[C@H]1CN(C(=O)OCC2c3ccccc3-c3ccccc32)C[C@H]1NC(=O)c1ccc2c(Cl)c[nH]c2c1)c1ccc(-n2ccccc2=O)cc1 reported=6.79
item_smiles=COC(=O)N1C[C@H](NC(=O)c2ccc(-n3ccccc3=O)cc2)[C@H](NC(=O)c2ccc(Cl)s2)C1 reported=9.13
item_smiles=CS(=O)(=O)N1C[C@H](NC(=O)c2ccc(-n3ccccc3=O)cc2)[C@H](NC(=O)c2ccc(Cl)s2)C1 reported=9.36
item_smiles=CC(C)S(=O)(=O)N1C[C@H](NC(=O)c2ccc(-n3ccccc3=O)cc2)[C@H](NC(=O)c2ccc(Cl)s2)C1 reported=8.77
item_smiles=CC(=O)N1C[C@H](NC(=O)c2ccc(-n3ccccc3=O)cc2)[C@H](NC(=O)c2ccc(Cl)s2)C1 reported=9.24
item_smiles=COCCNC(=O)[C@H]1C[C@H](NC(=O)c2ccc(-n3ccccc3=O)cc2)[C@H](NC(=O)c2ccc(Cl)s2)C1 reported=8.54
item_smiles=CN(C)C(=O)[C@H]1C[C@H](NC(=O)c2ccc(-n3ccccc3=O)cc2)[C@H](NC(=O)c2ccc(Cl)s2)C1 reported=8.68

----------
Biological target: Coagulation factor X (Homo sapiens, UniProt P00742)
Assay: Inhibition of human factor 10a in presence of prothrombin at 25 degC
RESULT TYPE: Ki (nM)

item_smiles=CCOC(=O)N1C[C@H](NC(=O)c2ccc(-n3ccccc3=O)cc2)[C@H](NC(=O)c2ccc(Cl)s2)C1 assayed_target="Coagulation factor X (Homo sapiens, UniProt P00742)" reported=7.5

----------
Assay: Volume of distribution at steady state in dog at 0.5 mg/kg, iv
Assay type: ADME, organism-based, Canis lupus familiaris
Design: dose 0.5 mg/kg, route intravenous
Conditions: in vivo, read-out: Vdss
// Vd lookup, one value per entry
RESULT TYPE: Vd (L/kg)

item_smiles=O=C(N[C@H]1CCC[C@H]1NC(=O)c1ccc(Cl)s1)c1ccc(-n2ccccc2=O)cc1 result_type=Vd uom=L/kg reported=0.8
item_smiles=CCOC(=O)N1C[C@H](NC(=O)c2ccc(-n3ccccc3=O)cc2)[C@H](NC(=O)c2ccc(Cl)s2)C1 result_type=Vd uom=L/kg reported=2.4
item_smiles=O=C(N[C@H]1COC[C@H]1NC(=O)c1ccc(Cl)s1)c1ccc(-n2ccccc2=O)cc1 result_type=Vd uom=L/kg reported=1
item_smiles=CC(=O)N1C[C@H](NC(=O)c2ccc(-n3ccccc3=O)cc2)[C@H](NC(=O)c2ccc(Cl)s2)C1 result_type=Vd uom=L/kg reported=2.4
item_smiles=CCS(=O)(=O)N1C[C@H](NC(=O)c2ccc(-n3ccccc3=O)cc2)[C@H](NC(=O)c2ccc(Cl)s2)C1 result_type=Vd uom=L/kg reported=1.1

----------
Assay: Clearance in dog at 0.5 mg/kg, iv
Format: ADME, organism-based, Canis lupus familiaris
Design: dose 0.5 mg/kg, route intravenous
Details: in vivo
// clearance lookup, one value per entry
RESULT TYPE: clearance (L/h/kg)

item_smiles=O=C(N[C@H]1CCC[C@H]1NC(=O)c1ccc(Cl)s1)c1ccc(-n2ccccc2=O)cc1 uom=L/h/kg reported=0.7
item_smiles=O=C(N[C@H]1COC[C@H]1NC(=O)c1ccc(Cl)s1)c1ccc(-n2ccccc2=O)cc1 uom=L/h/kg reported=1.6
item_smiles=CCOC(=O)N1C[C@H](NC(=O)c2ccc(-n3ccccc3=O)cc2)[C@H](NC(=O)c2ccc(Cl)s2)C1 uom=L/h/kg reported=2.6
item_smiles=CCS(=O)(=O)N1C[C@H](NC(=O)c2ccc(-n3ccccc3=O)cc2)[C@H](NC(=O)c2ccc(Cl)s2)C1 uom=L/h/kg reported=1.5
item_smiles=CC(=O)N1C[C@H](NC(=O)c2ccc(-n3ccccc3=O)cc2)[C@H](NC(=O)c2ccc(Cl)s2)C1 uom=L/h/kg reported=1.8
